Listed compounds paired with reported IC50
Study System: CETP (Homo sapiens, UniProt P11597)
Construct: CETP is obtained in partially purified form from human plasma by differential centrifugation and column chromatography and used for the test; from tissue; host or cells: human plasma
Sequence (P11597 18-493): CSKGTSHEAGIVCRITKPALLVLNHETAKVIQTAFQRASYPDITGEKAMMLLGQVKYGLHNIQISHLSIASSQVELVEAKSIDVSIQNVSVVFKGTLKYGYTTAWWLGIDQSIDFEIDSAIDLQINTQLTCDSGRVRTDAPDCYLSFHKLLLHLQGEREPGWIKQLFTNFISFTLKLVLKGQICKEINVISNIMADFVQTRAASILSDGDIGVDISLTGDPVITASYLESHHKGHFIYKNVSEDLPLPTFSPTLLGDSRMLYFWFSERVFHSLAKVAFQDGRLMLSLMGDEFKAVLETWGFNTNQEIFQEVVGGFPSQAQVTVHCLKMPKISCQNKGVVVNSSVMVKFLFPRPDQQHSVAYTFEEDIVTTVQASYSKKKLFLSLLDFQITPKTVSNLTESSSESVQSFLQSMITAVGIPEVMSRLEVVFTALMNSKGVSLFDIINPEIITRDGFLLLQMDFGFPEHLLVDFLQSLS
Measurement Notes: CETP fluorescence test with enriched CETP
Format: biochemical
Reported Conditions: enriched CETP fraction from human plasma; transfer of fluorescent cholesterol ester between liposomes; 37° C. for 4 h
Measure: IC50 (nM)

>>> recorded_measurement("CC(C)c1cc2c(c(-c3ccc(F)cc3)c1Cc1ccc(C(C)(C)C)cc1)[C@@H](O)CC1(CCC1)O2")
28
>>> recorded_measurement("CC(C)c1cc2c(c(-c3ccc(F)cc3)c1[C@@H](O)c1ccc(C(F)(F)F)cc1)[C@@H](O)CC1(CCC1)O2")
77
>>> recorded_measurement("CC(C)(C)c1ccc(Cc2c(C3CCCC3)cc3c(c2-c2ccc(F)cc2)[C@@H](O)CC2(CCC2)O3)cc1")
30
>>> recorded_measurement("O[C@H]1CC2(CCC2)Oc2cc(C3CCCC3)c(C(F)c3ccc(OC(F)(F)F)cc3)c(-c3ccc(F)cc3)c21 (some centres unmarked)")
39
>>> recorded_measurement("O[C@@H](c1ccc(OC(F)(F)F)cc1)c1c(C2CCCC2)cc2c(c1-c1ccc(F)cc1)[C@@H](O)CC1(CCC1)O2")
198
>>> recorded_measurement("CC(C)c1cc2c(c(-c3ccc(F)cc3)c1C(=O)c1ccc(C(F)(F)F)cc1)[C@@H](O)CC(C)(C)O2")
90
>>> recorded_measurement("O=C(c1ccc(C(F)(F)F)cc1)c1c(C2CCCC2)cc2c(c1-c1ccc(F)cc1)[C@@H](O)CC1(CCC1)O2")
45
>>> recorded_measurement("CC(C)c1cc2c(c(C3CCCC3)c1[C@@H](F)c1ccc(C(F)(F)F)cc1)[C@@H](O)CC1(CCC1)O2")
26
>>> recorded_measurement("CC(C)c1cc2c(c(-c3ccccc3)c1C(=O)c1ccc(OC(F)(F)F)cc1)[C@@H](O)CC(C)(C)O2")
792
>>> recorded_measurement("CC(C)c1cc2c(c(-c3ccc(F)cc3)c1[C@H](O)c1ccc(C(F)(F)F)cc1)[C@@H](O)CC1(CC1)O2")
263
>>> recorded_measurement("CC(C)c1cc2c(c(-c3ccc(F)cc3)c1[C@H](F)c1ccc(C(F)(F)F)cc1)[C@@H](O)CC1(CCC1)O2")
53
>>> recorded_measurement("CC(C)c1cc2c(c(-c3ccc(F)cc3)c1[C@@H](F)c1ccc(C(F)(F)F)cc1)[C@@H](O)CC1(CCC1)O2")
18
>>> recorded_measurement("CC(C)c1cc2c(c(-c3ccc(F)cc3)c1Cc1ccc(C(C)(C)C)cc1)[C@@H](O)CC(C)(C)O2")
70
>>> recorded_measurement("CC(C)c1cc2c(c(-c3ccc(F)cc3)c1[C@H](F)c1ccc(C(F)(F)F)cc1)[C@@H](O)CC(C)(C)O2")
373
